Tested on: HCC 2998
procedureDetails: Anticancer activity against human HCC2998 cells after 48 hrs by SRB assay
Type: functional
conditionLabel: HCC 2998, 48 h, read-out: LC50 (the source's name)
I'd be grateful if you could share measured CC50 for these entries.
Answers are plain numbers, in µM.

O=C(NCCNc1nccc(-c2c(-c3cccc(O)c3)nc3sccn23)n1)Nc1cccc(C(F)(F)F)c1 74.9

Kindly consider the entry below.
Memo: O=C(NCCNc1nccc(-c2c(-c3cccc(O)c3)nc3sccn23)n1)c1ccccc1 , reported CC50: 70.3

###

I'd be grateful if you could share measured GI50 for these entries.
System: SF-539
procedureDetails: Anticancer activity against human SF539 cells after 48 hrs by SRB assay
Assay type: functional
conditionLabel: SF-539, 48 h
Numbers only, in µM.

Examples with their reported GI50 follow.
O=C(NCCNc1nccc(-c2c(-c3cccc(O)c3)nc3sccn23)n1)c1ccccc1 11.3
O=C(NCCNc1nccc(-c2c(-c3cccc(O)c3)nc3sccn23)n1)Nc1cccc(C(F)(F)F)c1 13.1
COc1cccc(-c2nc3sccn3c2-c2ccnc(NCCNC(=O)Nc3cccc(C(F)(F)F)c3)n2)c1 3.83

Kindly consider the entry below.
Memo: O=C(NCCNc1nccc(-c2c(-c3cccc(O)c3)nc3sccn23)n1)c1ccccc1O , reported GI50: 11.9

###

Tested on: OVCAR-3
procedureDetails: Anticancer activity against human OVCAR3 cells assessed as cell growth at 10^-5 M after 48 hrs by SRB assay
Type: functional
conditionLabel: OVCAR-3, 48 h, read-out: Activity
I'd be grateful if you could share measured growth at 10 µM for these entries.

O=C(NCCNc1nccc(-c2c(-c3cccc(O)c3)nc3sccn23)n1)Nc1ccccc1 112%
COc1cccc(-c2nc3sccn3c2-c2ccnc(NCCNC(=O)Nc3cccc(C(F)(F)F)c3)n2)c1 66.3%
COc1cccc(-c2nc3sccn3c2-c2ccnc(NCCNC(=O)c3ccccc3)n2)c1 89.2%
COc1cccc(-c2nc3sccn3c2-c2ccnc(NCCNC(=O)c3ccccc3O)n2)c1 75%
COc1cccc(-c2nc3sccn3c2-c2ccnc(NCCNC(=O)c3ccc(N4CCOCC4)c(C(F)(F)F)c3)n2)c1 93.8%

Parameter requested: growth at 10 µM. Apply to each item below.
1. COc1cccc(-c2nc3sccn3c2-c2ccnc(NCCNC(=O)c3cc(N4CCOCC4)cc(C(F)(F)F)c3)n2)c1
2. COc1cccc(-c2nc3sccn3c2-c2ccnc(NCCNC(=O)c3cc(C(F)(F)F)cc(C(F)(F)F)c3)n2)c1

1. 96.3%
2. 90.9%

Parameter requested: growth at 10 µM. Apply to each item below.
1. COc1cccc(-c2nc3sccn3c2-c2ccnc(NCCNC(=O)c3cccc(C(F)(F)F)c3)n2)c1
2. O=C(NCCNc1nccc(-c2c(-c3cccc(O)c3)nc3sccn23)n1)c1ccccc1
3. COc1cccc(-c2nc3sccn3c2-c2ccnc(NCCNC(=O)Nc3ccccc3)n2)c1

76%
92.3%
109%

Parameter requested: growth at 10 µM. Apply to each item below.
1. O=C(NCCNc1nccc(-c2c(-c3cccc(O)c3)nc3sccn23)n1)Nc1cc(C(F)(F)F)cc(C(F)(F)F)c1
2. O=C(NCCNc1nccc(-c2c(-c3cccc(O)c3)nc3sccn23)n1)c1ccccc1O
3. O=C(NCCNc1nccc(-c2c(-c3cccc(O)c3)nc3sccn23)n1)Nc1cccc(C(F)(F)F)c1
4. O=C(NCCNc1nccc(-c2c(-c3cccc(O)c3)nc3sccn23)n1)c1cc(N2CCOCC2)cc(C(F)(F)F)c1

1: 82.2%; 2: 60.2%; 3: 76.7%; 4: 107%

###

Test system: SK-MEL-5
procedureDetails: Antiproliferative activity against human SK-MEL-5 cells after 48 hrs by MTT assay
Type: functional, cell-based
conditionLabel: SK-MEL-5, 48 h
I'd be grateful if you could share measured pIC50 for these entries.
Answers are plain numbers, as −log10 of the molar value.

O=C(NCCNc1nccc(-c2c(-c3cccc(O)c3)nc3sccn23)n1)c1ccccc1 5.38

Memo: O=C(NCCNc1nccc(-c2c(-c3cccc(O)c3)nc3sccn23)n1)c1ccccc1O , reported pIC50: 5.91

###

Test system: SK-OV-3
procedureDetails: Anticancer activity against human SKOV3 cells assessed as cell growth at 10^-5 M after 48 hrs by SRB assay
Assay type: functional
conditionLabel: SK-OV-3, 48 h, read-out: Activity
quantity: growth at 10 µM (%)
Give bare numbers, in %.

Examples with their reported growth at 10 µM follow.
O=C(NCCNc1nccc(-c2c(-c3cccc(O)c3)nc3sccn23)n1)Nc1cccc(C(F)(F)F)c1 85
O=C(NCCNc1nccc(-c2c(-c3cccc(O)c3)nc3sccn23)n1)c1ccccc1 65.1
COc1cccc(-c2nc3sccn3c2-c2ccnc(NCCNC(=O)c3ccccc3O)n2)c1 90

Parameter requested: growth at 10 µM. Apply to each item below.
1. O=C(NCCNc1nccc(-c2c(-c3cccc(O)c3)nc3sccn23)n1)Nc1cc(C(F)(F)F)cc(C(F)(F)F)c1
2. COc1cccc(-c2nc3sccn3c2-c2ccnc(NCCNC(=O)c3cccc(C(F)(F)F)c3)n2)c1

1: 89.3; 2: 81.1

###

I'd be grateful if you could share measured growth at 10 µM for these entries.
System: Malme-3M
procedureDetails: Anticancer activity against human MALME-3M cells assessed as cell growth at 10^-5 M after 48 hrs by SRB assay
Type: functional
conditionLabel: read-out: Activity

Examples with their reported growth at 10 µM follow.
COc1cccc(-c2nc3sccn3c2-c2ccnc(NCCNC(=O)c3ccccc3)n2)c1 26.7%
O=C(NCCNc1nccc(-c2c(-c3cccc(O)c3)nc3sccn23)n1)c1ccccc1 9.31%

Parameter requested: growth at 10 µM. Apply to each item below.
1. O=C(NCCNc1nccc(-c2c(-c3cccc(O)c3)nc3sccn23)n1)c1cccc(C(F)(F)F)c1
2. O=C(NCCNc1nccc(-c2c(-c3cccc(O)c3)nc3sccn23)n1)Nc1cccc(C(F)(F)F)c1

1. 0.75%
2. 23.6%

Parameter requested: growth at 10 µM. Apply to each item below.
1. COc1cccc(-c2nc3sccn3c2-c2ccnc(NCCNC(=O)Nc3cccc(C(F)(F)F)c3)n2)c1
2. COc1cccc(-c2nc3sccn3c2-c2ccnc(NCCNC(=O)Nc3ccccc3)n2)c1
3. COc1cccc(-c2nc3sccn3c2-c2ccnc(NCCNC(=O)c3ccccc3O)n2)c1
4. O=C(NCCNc1nccc(-c2c(-c3cccc(O)c3)nc3sccn23)n1)Nc1ccccc1
5. COc1cccc(-c2nc3sccn3c2-c2ccnc(NCCNC(=O)c3cc(N4CCOCC4)cc(C(F)(F)F)c3)n2)c1
6. COc1cccc(-c2nc3sccn3c2-c2ccnc(NCCNC(=O)c3ccc(N4CCOCC4)c(C(F)(F)F)c3)n2)c1
7. O=C(NCCNc1nccc(-c2c(-c3cccc(O)c3)nc3sccn23)n1)c1ccc(N2CCOCC2)c(C(F)(F)F)c1

["85.1%", "112%", "57.5%", "36.1%", "80.8%", "78.4%", "-4.27%"]

Parameter requested: growth at 10 µM. Apply to each item below.
1. COc1cccc(-c2nc3sccn3c2-c2ccnc(NCCNC(=O)c3cc(C(F)(F)F)cc(C(F)(F)F)c3)n2)c1
2. O=C(NCCNc1nccc(-c2c(-c3cccc(O)c3)nc3sccn23)n1)Nc1cc(C(F)(F)F)cc(C(F)(F)F)c1
3. O=C(NCCNc1nccc(-c2c(-c3cccc(O)c3)nc3sccn23)n1)c1ccccc1O

["94.1%", "60.5%", "14.6%"]

Parameter requested: growth at 10 µM. Apply to each item below.
1. O=C(NCCNc1nccc(-c2c(-c3cccc(O)c3)nc3sccn23)n1)c1cc(N2CCOCC2)cc(C(F)(F)F)c1
2. O=C(NCCNc1nccc(-c2c(-c3cccc(O)c3)nc3sccn23)n1)c1cc(C(F)(F)F)cc(C(F)(F)F)c1
3. COc1cccc(-c2nc3sccn3c2-c2ccnc(NCCNC(=O)c3cccc(C(F)(F)F)c3)n2)c1

3.04%
27%
50.8%

###

System: HL-60(TB)
procedureDetails: Anticancer activity against human HL-60(TB) cells assessed as cell growth at 10^-5 M after 48 hrs by SRB assay
Assay type: functional
conditionLabel: HL-60, 48 h, read-out: Activity
quantity: growth at 10 µM (%)
One number for each entry, in %.

Parameter requested: growth at 10 µM. Apply to each item below.
1. O=C(NCCNc1nccc(-c2c(-c3cccc(O)c3)nc3sccn23)n1)c1ccccc1O
2. O=C(NCCNc1nccc(-c2c(-c3cccc(O)c3)nc3sccn23)n1)c1ccc(N2CCOCC2)c(C(F)(F)F)c1
3. O=C(NCCNc1nccc(-c2c(-c3cccc(O)c3)nc3sccn23)n1)Nc1cc(C(F)(F)F)cc(C(F)(F)F)c1
4. O=C(NCCNc1nccc(-c2c(-c3cccc(O)c3)nc3sccn23)n1)Nc1cccc(C(F)(F)F)c1

1: 59.8; 2: 113; 3: 97.3; 4: 36.4

Every entry's value here was drawn from ChEMBL document CHEMBL1914423.
